Each record here notes measured OD.
biological target: T1, murine antithrombin (mouse, UniProt P32261 33-465); test: ELISA, sdAb coated, plasma 1/4, bound antithrombin probed with polyclonal anti-antithrombin; grade by OD
T1 construct: also called mouse antithrombin; murine AT
T1 sequence (P32261 33-465 limits assumed): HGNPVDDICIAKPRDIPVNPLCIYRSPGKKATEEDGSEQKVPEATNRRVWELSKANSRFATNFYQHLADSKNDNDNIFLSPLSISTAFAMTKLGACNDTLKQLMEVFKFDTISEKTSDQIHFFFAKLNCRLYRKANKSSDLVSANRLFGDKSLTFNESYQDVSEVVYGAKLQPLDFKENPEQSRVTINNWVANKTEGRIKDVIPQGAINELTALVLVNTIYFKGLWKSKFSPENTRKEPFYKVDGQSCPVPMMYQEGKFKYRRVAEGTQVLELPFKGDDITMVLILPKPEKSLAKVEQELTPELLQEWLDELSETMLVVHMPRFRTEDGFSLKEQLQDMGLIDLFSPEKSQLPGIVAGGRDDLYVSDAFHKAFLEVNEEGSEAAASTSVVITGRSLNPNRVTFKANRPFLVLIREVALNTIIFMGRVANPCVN

- BINDER: "KB-AT-005 (VHH, Monovalent anti-antithrombin single-domain antibody; also called sdAb KB-AT-005) VHH: EVQLVESGGGLVQPGGSLRLSCEASGRDFNDAALGWSRQVPGKARETVAMITSGGVRNYAETVKDRFTISRDNAKNTVYLDMNNLQPDDTGVYYCKADSFKGDYDTSWYLYWGQGTQVTVSS"
  OD: "0.1 to 0.5 od"
- BINDER: "KB-AT-007 (VHH, Monovalent anti-antithrombin single-domain antibody; same CDRs as KB-AT-001; also called sdAb KB-AT-007) VHH: QVQLQQSGGGLVQAGGSLRLSCAASGRTFRNYVMGWFRQAPGKDPEFIAGINRSGAITYYGDSVKGRFTISRDNAKNTVSLQMNSLEPEDTAVYYCAAGETTWSIRRDDYDYWGQGTQVTVSS"
  OD: "0.1 to 0.5 od"
- BINDER: "KB-AT-001 (VHH, Monovalent anti-antithrombin single-domain antibody; also called sdAb KB-AT-001) VHH: QVQLQQSGGDLAQRGGSLRLSCAASGRTFRNYVMGWFRQAPGKDPEFIAGINRSGAITYYGDSVKGRFTISRDNAKNTVSLQMNSLEPEDTAVYYCAAGETTWSIRRDDYDYWGQGTQVTVSS"
  OD: "≥ 0.5 od"
